Biological target: VEGFR2 (Homo sapiens)
Sequence (P35968 20-1356): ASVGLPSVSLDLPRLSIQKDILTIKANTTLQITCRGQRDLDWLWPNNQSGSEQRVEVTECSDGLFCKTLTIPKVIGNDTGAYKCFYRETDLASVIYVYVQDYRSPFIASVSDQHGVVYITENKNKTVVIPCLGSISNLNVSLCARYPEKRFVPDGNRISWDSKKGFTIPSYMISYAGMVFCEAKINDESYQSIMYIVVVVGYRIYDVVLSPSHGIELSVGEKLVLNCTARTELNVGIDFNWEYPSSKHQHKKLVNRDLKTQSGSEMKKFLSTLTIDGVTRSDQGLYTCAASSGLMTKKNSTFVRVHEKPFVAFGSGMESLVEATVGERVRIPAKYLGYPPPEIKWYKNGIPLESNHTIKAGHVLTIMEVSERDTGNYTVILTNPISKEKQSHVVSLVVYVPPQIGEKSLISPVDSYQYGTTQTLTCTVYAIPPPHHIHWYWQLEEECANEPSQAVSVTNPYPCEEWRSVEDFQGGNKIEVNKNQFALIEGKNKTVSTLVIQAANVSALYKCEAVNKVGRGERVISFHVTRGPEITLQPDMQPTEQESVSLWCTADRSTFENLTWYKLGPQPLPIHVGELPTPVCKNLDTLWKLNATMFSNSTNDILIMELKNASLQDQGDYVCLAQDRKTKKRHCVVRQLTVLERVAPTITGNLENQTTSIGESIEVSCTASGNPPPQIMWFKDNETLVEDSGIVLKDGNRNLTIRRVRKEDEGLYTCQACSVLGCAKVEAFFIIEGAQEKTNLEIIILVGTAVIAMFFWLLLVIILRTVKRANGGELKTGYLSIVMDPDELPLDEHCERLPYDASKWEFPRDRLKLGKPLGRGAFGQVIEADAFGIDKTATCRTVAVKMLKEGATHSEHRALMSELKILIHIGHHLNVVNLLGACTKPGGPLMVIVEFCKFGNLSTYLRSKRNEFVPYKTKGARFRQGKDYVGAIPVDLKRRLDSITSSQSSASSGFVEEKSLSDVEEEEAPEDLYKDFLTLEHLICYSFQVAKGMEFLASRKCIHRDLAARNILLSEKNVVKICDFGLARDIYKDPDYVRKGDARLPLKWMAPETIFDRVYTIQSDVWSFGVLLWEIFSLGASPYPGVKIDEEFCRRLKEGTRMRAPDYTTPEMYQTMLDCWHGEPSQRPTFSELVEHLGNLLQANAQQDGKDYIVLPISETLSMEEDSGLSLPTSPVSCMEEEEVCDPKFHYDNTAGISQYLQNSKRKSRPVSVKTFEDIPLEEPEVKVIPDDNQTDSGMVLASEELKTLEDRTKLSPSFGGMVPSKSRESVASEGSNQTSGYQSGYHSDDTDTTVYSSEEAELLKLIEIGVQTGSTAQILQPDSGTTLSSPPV
Assay: kinase assay VEGFR2
Assay type: biochemical
Conditions: read-out: IC50 VEGFR2
Measured IC50 accompanies every entry in the list below.

compound	IC50
c1ccc2c(-c3cnn4cc(-c5ccc(N6CCNCC6)cc5)cnc34)ccnc2c1 [LDN-193189, reference compound]	> 300 nM

Query compound follows.
Request: Which IC50 is listed for c1cc(-c2cnn3cc(-c4ccc(N5CCNCC5)cc4)cnc23)c2cccnc2c1 [LDN-212854] ?
Result: > 300 nM

----------
Molecular target: caALK5 (Homo sapiens, UniProt P36897, T204D)
Sequence (P36897 34-503 T204D): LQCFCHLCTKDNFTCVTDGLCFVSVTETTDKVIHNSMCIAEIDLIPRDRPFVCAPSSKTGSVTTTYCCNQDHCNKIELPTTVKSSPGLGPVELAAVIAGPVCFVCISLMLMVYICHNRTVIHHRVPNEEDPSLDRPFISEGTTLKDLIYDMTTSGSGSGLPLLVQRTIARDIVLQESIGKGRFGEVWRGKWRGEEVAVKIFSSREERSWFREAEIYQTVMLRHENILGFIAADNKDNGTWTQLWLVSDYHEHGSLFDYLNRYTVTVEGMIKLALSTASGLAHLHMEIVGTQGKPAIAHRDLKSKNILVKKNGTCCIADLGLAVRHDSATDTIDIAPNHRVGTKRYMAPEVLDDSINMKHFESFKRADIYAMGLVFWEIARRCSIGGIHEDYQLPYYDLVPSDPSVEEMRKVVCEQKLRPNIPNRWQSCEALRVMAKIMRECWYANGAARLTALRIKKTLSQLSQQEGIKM
Assay: CAGA-Luc reporter assay, caALK5 in 293T cells
Assay type: cell-based
Conditions: read-out: IC50 caALK5; CAGA-Luc, 293T cells
measure: IC50

compound	IC50
CC(C)Oc1ccc(-c2cnc3c(-c4ccnc5ccccc45)cnn3c2)cc1 [DMH1, reference compound]	~700 nM

Lab note: next compound to report on.
Request: Tell me the measured IC50 of c1cc(-c2cnn3cc(-c4ccc(N5CCNCC5)cc4)cnc23)c2cccnc2c1 [LDN-212854] , please.
Result: ~2000 nM
